Assay: Acute toxicity (LD50), ICR-JCL female mice, Litchfield-Wilcoxon graph method
Condition: mouse, in vivo, po, one dose, in olive oil, after 7 days
In this section we review reported LD50 at 168 h values for a set of compounds.
Measured Endpoint: LD50 at 168 h (mg/kg)

* O=c1[nH]cc(F)c(=O)[nH]1 [Test No. 8 (Table 17), 5-fluoro-2,4-dioxo-pyrimidine, reference compound] | 900
* CN(Cc1cnc2nc(N)nc(N)c2n1)c1ccc(C(=O)N[C@@H](CCC(=O)O)C(=O)O)cc1 [Test No. 12 (Table 18), 4-amino-N^10 --methylpteroyl glutamate, reference compound] | 230
* COc1cccc2c1C(=O)c1c(O)c3c(c(O)c1C2=O)C[C@@](O)(C(C)=O)C[C@@H]3O[C@H]1C[C@H](N)[C@H](O)[C@H](C)O1 [compound 18] | 20

* * *

In this section we review reported Inhibitory effect of tumor, efficiency values for a set of molecules.
Tested on: human breast cancer cells having steroid hormone receptor
Assay: Antitumor test (in vivo), human breast cancer cells implanted in BALB/C-nu/nu mice
Condition: p.o., 30 mg/kg, tumors excised day 25
Measured Endpoint: Inhibitory effect of tumor, efficiency

* CCC(=O)Oc1ccc2c(c1)CC[C@@H]1[C@@H]2CC[C@]2(C)[C@@H](OC(=O)Cn3cc(F)c(=O)[nH]c3=O)CC[C@@H]12 | 83%
* C[C@]12CC[C@@H]3c4ccc(OC(=O)c5ccccc5)cc4CC[C@H]3[C@@H]1CC[C@@H]2OC(=O)Cn1cc(F)c(=O)[nH]c1=O | 81%
* O=c1[nH]cc(F)c(=O)[nH]1 [Test No. 8 (Table 17), 5-fluoro-2,4-dioxo-pyrimidine, reference compound] | 60%
* CC(=O)Oc1ccc2c(c1)CC[C@@H]1[C@@H]2CC[C@]2(C)[C@@H](OC(=O)Cn3cc(F)c(=O)[nH]c3=O)CC[C@@H]12 | 87%

* * *

In this section we review reported LD50 at 168 h values for a set of compounds.
Assay: Acute toxicity (LD50), ICR-JCL female mice, Litchfield-Wilcoxon graph method
Condition: mouse, in vivo, ip, one dose, in olive oil, after 7 days
Measured Endpoint: LD50 at 168 h (mg/kg)

* CN(N=O)C(=O)N[C@H]1C(O)O[C@H](CO)[C@@H](O)[C@@H]1O (stereo partly drawn) [Test No. 5 (Table 18), reference compound] | 264
* CCC(=O)Oc1ccc2c(c1)CC[C@@H]1[C@@H]2CC[C@]2(C)[C@@H](OC(=O)Cn3cc(F)c(=O)[nH]c3=O)CC[C@@H]12 | 740

* * *

Assay: Acute toxicity (LD50), ICR-JCL female mice, Litchfield-Wilcoxon graph method
Condition: mouse, in vivo, po, one dose, in olive oil, after 7 days
In this section we review reported LD50 at 168 h values for a set of molecules.
Measured Endpoint: LD50 at 168 h

• CN(Cc1cnc2nc(N)nc(N)c2n1)c1ccc(C(=O)N[C@@H](CCC(=O)OCC(=O)O[C@H]2CC[C@H]3[C@@H]4CCc5cc(O)ccc5[C@H]4CC[C@]23C)C(=O)OCC(=O)O[C@H]2CC[C@H]3[C@@H]4CCc5cc(O)ccc5[C@H]4CC[C@]23C)cc1 [Test No. 9 (Table 17)] = > 3000 mg/kg
• CN(N=O)C(=O)N[C@H]1C(O)O[C@H](C(=O)OCC(=O)O[C@H]2CC[C@H]3[C@@H]4CCc5cc(O)ccc5[C@H]4CC[C@]23C)[C@@H](O)[C@@H]1O (some centres unmarked) [Test No. 6 (Table 17)] = > 1000 mg/kg
• CCC(=O)Oc1ccc2c(c1)CC[C@@H]1[C@@H]2CC[C@]2(C)[C@@H](OC(=O)Cn3cc(F)c(=O)[nH]c3=O)CC[C@@H]12 [Test No. 10 (Table 18)] = > 3000 mg/kg
• C[C@]12CC[C@@H]3c4ccc(OC(=O)c5ccccc5)cc4CC[C@H]3[C@@H]1CC[C@@H]2OC(=O)Cn1cc(F)c(=O)[nH]c1=O [Test No. 8 (Table 18)] = > 3000 mg/kg
• C[C@]12CC[C@@H]3c4ccc(OC(=O)c5ccccc5)cc4CC[C@H]3[C@@H]1CC[C@@H]2OC(=O)COCCNc1nc(N2CC2)nc(N2CC2)n1 [compound 20] = > 2000 mg/kg
